TEST SUMMARY: in vivo
CONDITION: male, Sprague-Dawley, rat, po, 2.16 g/kg
READOUT: Cmax (ng/mL)
Answers are plain numbers, in ng/mL.

Some molecules with known Cmax results, for comparison:
Cc1cc(O)c2c(c1)C(=O)c1cc(O)cc(O)c1C2=O: 370
O=C(O)c1cc(O)c(O)c(O)c1: 216

Ask | Please look up its Cmax: COc1cc(OC)c(OC)cc1C=O
Reply | 119

====

TEST SUMMARY: Pharmacokinetics in rat plasma after oral administration of PA, PMRP or ATR (HPLC-MS and GC-MS)
CONDITION: rat plasma; oral ATR extract 2.16 g/kg once; mean ± S.D., n = 6
READOUT: Tmax
// return the numeric value with its unit appended

C/C=C\c1cc(OC)c(OC)cc1OC [β-asarone]: 4.778 ± 3.777 h
C/C=C/c1ccc(OC)c(OC)c1 [cis-methyl isoeugenol]: 3.514 ± 3.753 h
C/C=C/c1cc(OC)c(OC)cc1OC [α-asarone]: 3.542 ± 3.736 h

Ask | Quick one: Tmax of COc1cc(OC)c(OC)cc1C=O [asarylaldehyde] ?
Reply | 2.208 ± 3.217 h

All values here come from paper PMC8360279.
